experiment-description: gradient 5% acetonitrile 3 min, to 50% in 2 min, to 85% in 15 min, held 3 min, 100 µL/min
test-parameters: column: Zorbax Extend-C18 2.1 x 50 mm; eluents: water / acetonitrile, 0.1% formic acid
assay-readout: RP-LC retention time (s)

# count of solved cases: 3
- molecule: "Fc1ccccc1-c1nc2ccc(Cl)cn2c1Nc1ccc(Cl)cc1"
  assay-readout: "RP-LC retention time"
  number: 909
- molecule: "O=C(NCc1csc(-c2cccs2)n1)C1CCN(C(=O)c2ccc(F)cc2)CC1"
  assay-readout: "RP-LC retention time"
  number: 743
- molecule: "CCn1ccc2cc(S(=O)(=O)N3CCCC(C(=O)NCc4ccc(OC(C)C)cc4)C3)ccc21 (centres undefined)"
  assay-readout: "RP-LC retention time"
  number: 1060

a: COC(=O)c1cnc(N2CCN(c3ccccc3F)CC2)c2ccccc12
b: CC(C)CCNC(=O)CCC(=O)N1CCCn2nc(-c3cn(C)c4ccccc34)cc21
Problem: # argmax over RP-LC retention time for candidates a and b Could you answer with the label of the item you picked?
Result: a
